# TESTED SYSTEM: T1, LRRC7, Q96NW7
# T1 sequence (Q96NW7 1440-1537, limits assumed, looked up): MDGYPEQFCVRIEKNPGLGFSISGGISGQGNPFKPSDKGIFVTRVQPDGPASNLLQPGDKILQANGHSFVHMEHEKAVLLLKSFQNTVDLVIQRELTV
# PROTOCOL TEXT: holdup assay
# Design: key: below the threshold = too weak to quantify, mostly under pKd 3.1 to 4
# TEST SETTINGS: plain residues with an end cap or a label only (N-terminal biotin on a linker: ado-ado)
QUANTITY: pKd

Solved entries (count: 4):
Would you mind telling me what pKd value was observed for PEKVSNTTVV [IGSF5, Q9NSI5] ? below the threshold

Form field: reported pKd of TKDKVQETQI [LRRC4, Q9HBW1] 3.53

// lookup pKd for KPDKQEEFYA [SDC3, O75056] below the threshold

Which pKd is listed for SQDPKKPSRV [CBY2, Q8NA61] ? below the threshold

More entries:
// lookup pKd for PALKNGQYWV [CSPG4, Q6UVK1] 3.7

# lookup: pKd of MQILSKPEFI [NPSR1, Q6W5P4] below the threshold

May I ask what pKd has been recorded for PAALPESTHM [SLC9A3, P48764] ? below the threshold

Any idea what pKd was measured for VKQYADVEGF [HNRNPK, P61978;P61978-2] ? below the threshold

Reported pKd, binder NKSEPFLTWL [WWTR1, Q9GZV5] : ____ 4.31
